Reference source for all entries: the Human Domainome abundance scans (Beltran et al. 2025)

B1: POU domain, class 3, transcription factor 3, residues 408 to 463; numbered along this chain, P20264 (parent)
chain: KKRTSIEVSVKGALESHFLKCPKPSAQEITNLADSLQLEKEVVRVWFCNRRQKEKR

Variants of: B1
Test: abundance fitness (aPCA) (normalised: wild type 0, dead -1); higher = more abundant; growth selection in yeast, the domain comes from the species named
Conditions: Homo sapiens
I would appreciate it if you labelled entries true (1) when abundance fitness is -0.2 or higher, otherwise false (0).

Exam item: Determine whether this variant has abundance fitness no lower than -0.2: KKRTSIEVSVKGALESHFLKCPKPSAQEITNLADSLQLEKEVVRVWFCNRRIKEKR [Q52I]
Marked response: true (1)

Exam item: Determine whether this variant has abundance fitness no lower than -0.2: KKRTSSEVSVKGALESHFLKCPKPSAQEITNLADSLQLEKEVVRVWFCNRRQKEKR [I6S]
Marked response: true (1)

Exam item: Determine whether this variant has abundance fitness no lower than -0.2: KKRTSIEVSVKGALESHFLKCPKPSAQEITNLADSLQLEKEVVRVWFCNRRQCEKR [K53C]
Marked response: true (1)

Exam item: Determine whether this variant has abundance fitness no lower than -0.2: KKRTSIEVSVKGALESHFLKCPKPSAQEITNLADSLQLEKEVVGVWFCNRRQKEKR [R44G]
Marked response: true (1)

Exam item: Determine whether this variant has abundance fitness no lower than -0.2: KKRTSIEVSVKGALESHFLKCPKPSAQEITNLADSRQLEKEVVRVWFCNRRQKEKR [L36R]
Marked response: false (0)

Exam item: Determine whether this variant has abundance fitness no lower than -0.2: KKRTSIEVSVKGALESHFLKCPKPSAQEITNLADSLQLEKEGVRVWFCNRRQKEKR [V42G]
Marked response: false (0)

Exam item: Determine whether this variant has abundance fitness no lower than -0.2: KKRTSIEVSVKGALESHFLKCPKPSAQEITNLADSLQLEKEVVRKWFCNRRQKEKR [V45K]
Marked response: true (1)

Exam item: Determine whether this variant has abundance fitness no lower than -0.2: KKRTSIEVSVKGALEHHFLKCPKPSAQEITNLADSLQLEKEVVRVWFCNRRQKEKR [S16H]
Marked response: false (0)

Exam item: Determine whether this variant has abundance fitness no lower than -0.2: KKRTSIEVSVKGALESHFLKCPKPSAQEITNLADSLQLEKEVNRVWFCNRRQKEKR [V43N]
Marked response: false (0)

Exam item: Determine whether this variant has abundance fitness no lower than -0.2: KKRTSIEVSVKGALESHFLKCPKPNAQEITNLADSLQLEKEVVRVWFCNRRQKEKR [S25N]
Marked response: true (1)

Exam item: Determine whether this variant has abundance fitness no lower than -0.2: KKRTSIEVSVKGALRSHFLKCPKPSAQEITNLADSLQLEKEVVRVWFCNRRQKEKR [E15R]
Marked response: false (0)

Exam item: Determine whether this variant has abundance fitness no lower than -0.2: KKRTSIEVSVKGALESHFLKCPKPSAQEITNLKDSLQLEKEVVRVWFCNRRQKEKR [A33K]
Marked response: false (0)

Exam item: Determine whether this variant has abundance fitness no lower than -0.2: KKRTSYEVSVKGALESHFLKCPKPSAQEITNLADSLQLEKEVVRVWFCNRRQKEKR [I6Y]
Marked response: true (1)

Exam item: Determine whether this variant has abundance fitness no lower than -0.2: KKRTSIEVSVKGADESHFLKCPKPSAQEITNLADSLQLEKEVVRVWFCNRRQKEKR [L14D]
Marked response: false (0)

Exam item: Determine whether this variant has abundance fitness no lower than -0.2: KKRTSIEVSVKGALESHFLKCPKPSAQEITNCADSLQLEKEVVRVWFCNRRQKEKR [L32C]
Marked response: false (0)

Exam item: Determine whether this variant has abundance fitness no lower than -0.2: KKRTSIEVSVKGALESHFLKCPKPSAQEITNLADSLQLEKEVVRVWFCNRRWKEKR [Q52W]
Marked response: true (1)

Exam item: Determine whether this variant has abundance fitness no lower than -0.2: KKRTSIEVSVKGALESHFLKCPKPSAQEITNLADSLGLEKEVVRVWFCNRRQKEKR [Q37G]
Marked response: true (1)

Exam item: Determine whether this variant has abundance fitness no lower than -0.2: KKRTSIEVSVKGALESHFLRCPKPSAQEITNLADSLQLEKEVVRVWFCNRRQKEKR [K20R]
Marked response: true (1)

Exam item: Determine whether this variant has abundance fitness no lower than -0.2: KKRTSIEVSVKGALESHFLKCPKPSAQEITNLADSLQLEKEVERVWFCNRRQKEKR [V43E]
Marked response: false (0)

Exam item: Determine whether this variant has abundance fitness no lower than -0.2: KKRTSIEVSVKGLLESHFLKCPKPSAQEITNLADSLQLEKEVVRVWFCNRRQKEKR [A13L]
Marked response: true (1)
